testedOn: Avi-KRAS WT (2-169) GTP/RAF1 RBD-3xFLAG (51-131) (Homo sapiens, UniProt P01116)
Construct: Avi-KRAS WT (2-169)
Sequence (P01116 2-169 isoform P01116-2): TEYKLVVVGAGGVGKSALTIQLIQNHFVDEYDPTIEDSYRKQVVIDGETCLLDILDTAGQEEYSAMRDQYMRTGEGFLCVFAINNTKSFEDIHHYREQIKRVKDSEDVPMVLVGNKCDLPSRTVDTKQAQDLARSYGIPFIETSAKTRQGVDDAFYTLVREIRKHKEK
assayDetails: Raf1-KRAS WT-GTP disruption HTRF assay (Biological Example 3)
Format: binding
conditionSummary: KRAS WT, GTP-loaded
Method: Biological Example 3: Disrupting RAS-Effector Binding HTRF Assay A protein:protein interaction (PPI) Homogeneous Time Resolved Fluorescence (HTRF) assay was used to determine the effectiveness of compounds in disrupting KRAS protein and effector (RAF1) binding. […] Plates were analyzed on an Envision plate reader using the following setting: Excitation 320 nm, Bandwidth 75 nm; Emission 615 nm, Bandwidth 85 nm; Gain 100%; Flashes 100; Lag 60 μs. […] Data was plotted and analyzed using Prism 8. […]
pIC50: −log10 of the molar value.
Catalogue of pIC50 readings, one per entry.

CCC(=O)N1CC[C@@H](N(CC)c2nc(OC[C@@]34CCCN3C[C@H](F)C4)nc3c(F)c(-c4ccc(F)c5sc(N)c(C#N)c45)c(C(F)(F)F)cc23)[C@H]1C (atropisomer, axis not shown) : ≥ 7.00
CCN(c1nc(OC[C@@]23CCCN2C[C@H](F)C3)nc2c(F)c(-c3ccc(F)c4sc(N)c(C#N)c34)c(C(F)(F)F)cc12)[C@H]1C[C@@H](C)N(C(=O)OC2CC(OC)C2)C1 (stereo partly drawn) : 5.00 to 6.00
CCN(c1nc(OC[C@@]23CCCN2C[C@H](F)C3)nc2c(F)c(-c3ccc(F)c4sc(N)c(C#N)c34)c(C(F)(F)F)cc12)[C@H]1C=C[C@@H](C(=O)N(C)C)C1 (atropisomer, axis not shown) : < 5.00
CCN(c1nc(OCC23CCCN2CC(F)C3)nc2c(F)c(-c3ccc(F)c4sc(N)c(C#N)c34)c(C(F)(F)F)cc12)C(C)c1cccnc1 (stereo not drawn) : < 5.00

Reported pIC50 for [2H]C1([2H])O[C@@H]2C[C@H]1N(c1nc(OC[C@@]34CCCN3C[C@H](F)C4)nc3c(F)c(-c4ccc(F)c5sc(N)c(C#N)c45)c(C(F)(F)F)cc13)C2 was 6.00 to 7.00

Reported pIC50 for CCN(c1nc(OC[C@@]23CCCN2C[C@H](F)C3)nc2c(F)c(-c3ccc(F)c4sc(N)c(C#N)c34)c(C(F)(F)F)cc12)[C@H]1CCN(C(=O)OC2CC(F)(F)C2)C1 (atropisomer, axis not shown) was 6.00 to 7.00

Reported pIC50 for CCN(c1nc(OC[C@@]23CCCN2C[C@H](F)C3)nc2c(F)c(-c3ccc(F)c4sc(N)c(C#N)c34)c(C(F)(F)F)cc12)[C@H]1CCN(C(=O)O[C@@H]2CCOC2)C1 (atropisomer, axis not shown) was 6.00 to 7.00

Reported pIC50 for CCN(c1nc(OC[C@@]23CCCN2C[C@H](F)C3)nc2c(F)c(-c3ccc(F)c4sc(N)c(C#N)c34)c(C(F)(F)F)cc12)[C@H]1CCN(C(=O)c2cnc(C)s2)C1 (atropisomer, axis not shown) was 6.00 to 7.00

Reported pIC50 for CCN(c1nc(OC[C@@]23CCCN2C[C@H](F)C3)nc2c(F)c(-c3ccc(F)c4sc(N)c(C#N)c34)c(C(F)(F)F)cc12)[C@H]1CCN(C(C)=O)[C@@H]1COC (atropisomer, axis not shown) was 6.00 to 7.00
